target: Cystic fibrosis transmembrane conductance regulator (Homo sapiens, UniProt P13569, F508DEL); experiment: Binding affinity to sensorchip-immobilized human His-tagged CFTR F508 deletion mutant by surface plasmon resonance analysis
Sequence (P13569 as listed by the source): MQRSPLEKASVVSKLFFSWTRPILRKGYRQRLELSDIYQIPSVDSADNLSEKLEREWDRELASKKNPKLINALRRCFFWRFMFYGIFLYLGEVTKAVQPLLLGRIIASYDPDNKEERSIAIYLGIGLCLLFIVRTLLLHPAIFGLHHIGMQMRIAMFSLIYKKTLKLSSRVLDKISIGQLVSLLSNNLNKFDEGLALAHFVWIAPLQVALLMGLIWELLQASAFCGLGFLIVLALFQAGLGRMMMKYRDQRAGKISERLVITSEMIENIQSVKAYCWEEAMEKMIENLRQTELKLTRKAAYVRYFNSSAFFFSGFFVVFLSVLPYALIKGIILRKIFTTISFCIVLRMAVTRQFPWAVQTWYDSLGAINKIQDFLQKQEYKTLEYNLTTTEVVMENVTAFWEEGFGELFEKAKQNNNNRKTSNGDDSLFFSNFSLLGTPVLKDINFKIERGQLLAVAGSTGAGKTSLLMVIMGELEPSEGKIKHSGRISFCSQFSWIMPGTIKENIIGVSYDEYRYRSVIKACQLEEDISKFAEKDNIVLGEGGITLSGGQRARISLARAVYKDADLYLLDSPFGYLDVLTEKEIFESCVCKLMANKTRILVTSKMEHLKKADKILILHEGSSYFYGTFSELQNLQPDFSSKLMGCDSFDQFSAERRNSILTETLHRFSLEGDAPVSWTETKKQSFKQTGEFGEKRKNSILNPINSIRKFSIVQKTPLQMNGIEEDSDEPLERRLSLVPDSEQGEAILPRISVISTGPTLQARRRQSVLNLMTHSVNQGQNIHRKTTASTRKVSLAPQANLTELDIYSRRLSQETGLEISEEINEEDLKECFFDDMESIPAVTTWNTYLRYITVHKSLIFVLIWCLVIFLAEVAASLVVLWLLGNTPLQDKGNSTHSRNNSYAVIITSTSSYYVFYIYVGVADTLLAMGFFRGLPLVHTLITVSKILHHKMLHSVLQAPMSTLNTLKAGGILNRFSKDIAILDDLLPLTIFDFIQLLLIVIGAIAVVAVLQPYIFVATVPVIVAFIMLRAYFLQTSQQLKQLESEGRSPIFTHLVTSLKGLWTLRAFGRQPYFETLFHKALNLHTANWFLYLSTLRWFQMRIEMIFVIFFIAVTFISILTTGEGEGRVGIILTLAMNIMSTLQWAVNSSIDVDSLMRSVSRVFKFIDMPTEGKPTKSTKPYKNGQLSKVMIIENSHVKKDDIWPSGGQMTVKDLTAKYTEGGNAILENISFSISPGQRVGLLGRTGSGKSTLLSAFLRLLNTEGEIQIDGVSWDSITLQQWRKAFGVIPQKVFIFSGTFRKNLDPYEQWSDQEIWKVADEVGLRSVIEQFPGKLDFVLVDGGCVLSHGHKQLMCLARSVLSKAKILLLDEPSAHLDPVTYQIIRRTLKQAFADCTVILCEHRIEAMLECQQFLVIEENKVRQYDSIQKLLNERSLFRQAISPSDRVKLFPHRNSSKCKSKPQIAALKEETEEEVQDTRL
Measured Kd by item
Reply numerically in µM, unit not repeated.

1) C[C@@H]1O[C@@H](OC[C@H]2O[C@@H](Oc3c(-c4ccc(O)c(O)c4)oc4cc(O)cc(O)c4c3=O)[C@H](O)[C@@H](O)[C@@H]2O)[C@H](O)[C@H](O)[C@H]1O	65.8
2) CCCc1nc2c(C)cc(-c3nc4ccccc4n3C)cc2n1Cc1ccc(-c2ccccc2C(=O)O)cc1	189
3) O=c1c(O)c(-c2ccc(O)c(O)c2)oc2cc(O)cc(O)c12	25.6

Quick one: Kd for CN1CC(=O)N2[C@H](c3ccc4c(c3)OCO4)c3[nH]c4ccccc4c3C[C@@H]2C1=O ?
175
